Measured growth inhibition, listed per entry.
method: inhibition of 3D7 malaria parasite growth – strain 3D7 (AID 2306);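 further: 0% = DMSO wells and 100% = chloroquine plus artemisinin control wells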
measurement-context: P. falciparum 3D7 erythrocytic growth, LDH absorbance, 72 h; at 2 µM; hits give high values
Dear colleague, please return just the value in %, with no unit written.

// worked examples, growth inhibition included
N#Cc1ccc2[nH]cc(C(=O)CCCCCN(Cc3ccccc3)Cc3ccccc3)c2c1 : 93
CCOc1ccc(C(=O)Nc2cc(Cl)ccc2O)cc1Cl : 83

Prompt line: Indicate the recorded growth inhibition value for this compound: Cc1cc(Nc2cccc(Cl)c2)nc2ccc(NC(=O)c3ccc(=O)[nH]c3)cc12
Response line: 100

* * *

method: inhibition of 3D7 malaria parasite growth – strain 3D7 (AID 2306);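 further: 0% = DMSO wells and 100% = chloroquine plus artemisinin control wells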
measurement-context: P. falciparum 3D7 erythrocytic growth, LDH absorbance, 72 h; at 2 µM; hits give high values
Measured growth inhibition, listed per entry.
Dear colleague, please return just the value in %, with no unit written.

// worked examples, growth inhibition included
N#Cc1ccc(NC(=NC2Cc3ccccc3C2)Nc2cccc(Cl)c2Cl)c(O)c1 : 94
NC(N)=NN=Cc1c2ccccc2c(Cl)c2c(Cl)cccc12 : 91
NC1CCN(Cc2cccc(-c3csc(-c4nc5ccccc5[nH]4)c3)c2)C1 (stereo not given) : 99
CCOC(=O)c1c[nH]c2c(sc3cc(OC)ccc32)c1=O : 96
COc1ccc(OC)c2c1CCN(CCN1CCC(C(=O)Nc3ccc(C(=O)Nc4ccc(Cl)cc4)cc3)CC1)C2 : 100
Cc1cccc2[nH]c(-c3cccc(-c4cccc(NC(=O)c5cn(C)c(=O)n5C)c4)c3)nc12 : 99
CC(C)(C)c1ccc(CNC(=O)c2ccc(-c3nc4ccc(Cl)cc4[nH]3)cc2)cc1 : 93
CCC(O)(C#Cc1c(C)nc(N)nc1N)CC : 97
CNC(=O)CC(=O)NCCc1ccc(Cl)cc1 : 99
CCN(CC)CCN(Cc1ccc(-c2ccc(C(F)(F)F)cc2)cc1)C(=O)Cn1cc(Cc2cnn(C)c2)c(=O)nc1/C=C/c1ccc(F)cc1 : 96

Prompt line: Indicate the recorded growth inhibition value for this molecule: COc1ccc2nccc([C@@H](O)CN3CCC(NCC4COc5ccccc5O4)CC3)c2c1 (stereo not given in full)
Response line: 98
